target: DNA-dependent protein kinase (DNA-PK) (Homo sapiens, UniProt P78527); construct: endogenous in cells; host or cells: Jurkat (ATCC TIB-152, clone E6-1) and Ramos (ATCC CRL-1596), 1:1 lysate mix; test: kinobeads assay, DNA-PK; assay type: binding; conditions: 1:1 mix of Jurkat and Ramos cell lysates, read-out: Inhibition values (IC50 in μM) as determined in the kinobeads assay, DNA-PK
Counter-ions that a name gives are not always drawn.
Can you tell me IC50 for the items I'm about to list?

I'd like to know its IC50. The compound in question is CC(C)N1Cc2nc(N3CCOC[C@@H]3C)nc(-c3ccc(NC(=O)NCCC#N)cc3)c2C1 [Example 52, 2,2,2-trifluoroacetate]
> 100 µM

Fill blank: measured IC50 of the compound C[C@H]1COCCN1c1nc2c(c(-c3ccc(NC(=O)NC4CC4)cc3)n1)CN(C(=O)C1CCOC1)C2 (stereo partly drawn) [Example 40, 2,2,2-trifluoroacetate] is ____.
> 100 µM

Could you now consider this next compound?
Which IC50 value is on record for O=C(NCCO)Nc1ccc(-c2nc(N3CC4CCC(C3)O4)nc3c2CNC3)cc1 [Example 43, hydrochloride] ?
1 to 10 µM

----------
biological target: DNA-dependent protein kinase (DNA-PK) (Homo sapiens); construct: endogenous in cells; host or cells: Jurkat (ATCC TIB-152, clone E6-1) and Ramos (ATCC CRL-1596), 1:1 lysate mix; test: kinobeads assay, DNA-PK; type: binding; conditions: 1:1 mix of Jurkat and Ramos cell lysates, read-out: Inhibition values (IC50 in μM) as determined in the kinobeads assay, DNA-PK
For each record, write down the corresponding IC50.

Report IC50 for O=C(Nc1ccc(-c2nc(N3CC4CCC(C3)O4)nc3c2CNC3)cc1)NC1CC1 please.
10 to 100 µM

Entry NC(=O)Nc1ccc(-c2nc(N3CCOCC3)nc3c2CNC3)cc1 has what IC50?
10 to 100 µM

Give its IC50 value. Item: CCNC(=O)Nc1ccc(-c2nc(N3CCOC[C@@H]3C)nc3c2CN(C(C)C)C3)cc1 [Example 46, 2,2,2-trifluoroacetate]
> 100 µM

Find the recorded IC50 belonging to CS(=O)(=O)N1Cc2nc(N3CC4CCC(C3)O4)nc(-c3ccc(NC(=O)NC4CC4)cc3)c2C1 and report it.
> 100 µM

State recorded IC50 for all listed compounds.
1. C[C@H]1COCCN1c1nc2c(c(-c3ccc(NC(=O)NC4CC4)cc3)n1)CN(C(=O)CN)C2
2. C[C@H]1COCCN1c1nc2c(c(-c3ccc(NC(=O)NC4CC4)cc3)n1)CN(C(=O)CCCN(C)C)C2

1. > 100 µM
2. 10 to 100 µM

Please go through the list and note IC50 for each compound.
1. CCOC(=O)Nc1ccc(-c2nc(N3CCOC[C@@H]3C)nc3c2CNC3)cc1
2. COCC(=O)N1Cc2nc(N3CCOC[C@@H]3C)nc(-c3ccc(NC(=O)NC4CC4)cc3)c2C1

1. > 100 µM
2. > 100 µM

----------
target: mTOR (Homo sapiens); construct: endogenous in cells; host or cells: Jurkat (ATCC TIB-152, clone E6-1) and Ramos (ATCC CRL-1596), 1:1 lysate mix; experiment: mTOR kinobeads assay (competition binding in cell lysate, dot blot detection); settings: 1:1 mix of Jurkat and Ramos cell lysates, read-out: Inhibition values (IC50 in μM) as determined in the kinobeads assay, mTor
Structures can show the parent of a compound that is named as a salt.
Kindly state IC50 for each of the entries shown.

Observe how each entry below is paired with its result.
Look at this compound and give its reported IC50. C[C@H]1COCCN1c1nc2c(c(-c3ccc(NC(=O)NC4CC4)cc3)n1)CN(C(=O)CCN(C)C)C2 [Example 21]
1 to 10 µM

Which IC50 is listed for CCNC(=O)Nc1ccc(-c2nc(N3CCOC[C@@H]3C)nc3c2CN(C(=O)OCC)C3)cc1 [Example 8] ?
10 to 100 µM

Tell me the measured IC50 of NC(=O)Nc1ccc(-c2nc(N3CCOCC3)nc3c2CNC3)cc1 [Example 6] , please.
0.1 to 1 µM

Fill in: IC50 of C[C@H]1COCCN1c1nc2c(c(-c3ccc(NC(=O)NC4CC4)cc3)n1)CN(S(C)(=O)=O)C2 [Example 15] is ___
0.1 to 1 µM

What value of IC50 has been reported for the following compound? C[C@H]1COCCN1c1nc2c(c(-c3ccc(NC(=O)Nc4ccncc4)cc3)n1)CNC2 [Example 24]
1 to 10 µM

I have 3 compounds here; please give me IC50 for each one.
1. C[C@H]1COCCN1c1nc2c(c(-c3ccc(NC(=O)NC4CC4)cc3)n1)CN(C)C2 [Example 11]
2. C[C@H]1COCCN1c1nc2c(c(-c3ccc(NC(=O)NC4CC4)cc3)n1)CN(C(=O)CCCN)C2 [Example 30]
3. C[C@H]1COCCN1c1nc2c(c(-c3ccc(NC(=O)NC4CC4)cc3)n1)CN(C(=O)CN1CCOCC1)C2 [Example 47, 2,2,2-trifluoroacetate]

0.1 to 1 µM
1 to 10 µM
1 to 10 µM

For the 4 compounds below, give their IC50 values.
1. COCC(=O)N1Cc2nc(N3CCOC[C@@H]3C)nc(-c3ccc(NC(=O)NC4CC4)cc3)c2C1 [Example 27]
2. C[C@H]1COCCN1c1nc2c(c(-c3ccc(NC(=O)NC4CC4)cc3)n1)CN(C(=O)C1CCCN1)C2 (stereo partly drawn) [Example 41, hydrochloride]
3. C[C@@H]1COCCN1c1nc2c(c(-c3ccc(NC(=O)NC4CC4)cc3)n1)CNC2 [Example 26]
4. C[C@H]1COCCN1c1nc2c(c(-c3ccc(NC(=O)NCCO)cc3)n1)CN(C1CCCCC1)C2 [Example 38]

1. 1 to 10 µM
2. 1 to 10 µM
3. 0.1 to 1 µM
4. 1 to 10 µM

Report IC50 for each item below.
1. C[C@H]1COCCN1c1nc2c(c(-c3ccc(NC(=O)NC4CC4)cc3)n1)CN(C(=O)C1CCCO1)C2 (stereo partly drawn) [Example 33]
2. CCNC(=O)N1Cc2nc(N3CCOC[C@@H]3C)nc(-c3ccc(NC(=O)NC4CC4)cc3)c2C1 [Example 17]
3. C[C@H]1COCCN1c1nc2c(c(-c3ccc(NC(=O)NC4CC4)cc3)n1)CN(C(=O)CCCN(C)C)C2 [Example 32]

1 to 10 µM
1 to 10 µM
1 to 10 µM

----------
I'd be grateful if you could share measured IC50 for these entries.
biological target: PI3Kδ (Homo sapiens); construct: endogenous in cells; host or cells: Jurkat (ATCC TIB-152, clone E6-1) and Ramos (ATCC CRL-1596), 1:1 lysate mix; test: kinobeads assay, PI3Kδ; format: binding; conditions: 1:1 mix of Jurkat and Ramos cell lysates, read-out: Inhibition values (IC50 in μM) as determined in the kinobeads assay, PI3Kδ
Sequence (O00329 whole entry): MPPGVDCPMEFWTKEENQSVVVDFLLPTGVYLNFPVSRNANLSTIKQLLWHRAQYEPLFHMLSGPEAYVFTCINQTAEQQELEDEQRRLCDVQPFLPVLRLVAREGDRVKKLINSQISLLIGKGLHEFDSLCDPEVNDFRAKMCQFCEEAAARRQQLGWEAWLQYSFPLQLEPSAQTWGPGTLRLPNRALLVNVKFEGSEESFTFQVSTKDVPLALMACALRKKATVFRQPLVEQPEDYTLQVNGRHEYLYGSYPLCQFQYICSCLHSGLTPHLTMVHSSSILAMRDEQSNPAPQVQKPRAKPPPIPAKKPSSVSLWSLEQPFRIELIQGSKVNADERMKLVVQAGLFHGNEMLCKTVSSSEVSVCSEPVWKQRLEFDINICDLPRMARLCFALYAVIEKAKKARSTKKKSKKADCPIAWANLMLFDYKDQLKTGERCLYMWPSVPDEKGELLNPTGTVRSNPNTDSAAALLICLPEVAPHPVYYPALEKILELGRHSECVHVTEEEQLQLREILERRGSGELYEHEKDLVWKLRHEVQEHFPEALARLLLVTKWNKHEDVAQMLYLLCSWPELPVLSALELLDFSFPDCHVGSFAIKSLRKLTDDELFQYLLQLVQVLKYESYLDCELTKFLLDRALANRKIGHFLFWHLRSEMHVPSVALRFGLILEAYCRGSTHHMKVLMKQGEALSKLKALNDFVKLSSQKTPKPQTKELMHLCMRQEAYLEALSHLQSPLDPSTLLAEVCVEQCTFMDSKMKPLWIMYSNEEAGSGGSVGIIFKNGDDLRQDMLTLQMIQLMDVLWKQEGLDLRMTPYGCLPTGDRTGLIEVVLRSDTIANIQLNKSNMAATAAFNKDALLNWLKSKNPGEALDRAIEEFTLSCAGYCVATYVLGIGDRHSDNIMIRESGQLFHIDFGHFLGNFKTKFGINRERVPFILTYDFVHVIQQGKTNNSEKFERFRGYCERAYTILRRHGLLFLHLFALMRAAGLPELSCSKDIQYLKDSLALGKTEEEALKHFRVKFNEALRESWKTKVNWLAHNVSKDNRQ
Sequence (P27986 whole entry partner): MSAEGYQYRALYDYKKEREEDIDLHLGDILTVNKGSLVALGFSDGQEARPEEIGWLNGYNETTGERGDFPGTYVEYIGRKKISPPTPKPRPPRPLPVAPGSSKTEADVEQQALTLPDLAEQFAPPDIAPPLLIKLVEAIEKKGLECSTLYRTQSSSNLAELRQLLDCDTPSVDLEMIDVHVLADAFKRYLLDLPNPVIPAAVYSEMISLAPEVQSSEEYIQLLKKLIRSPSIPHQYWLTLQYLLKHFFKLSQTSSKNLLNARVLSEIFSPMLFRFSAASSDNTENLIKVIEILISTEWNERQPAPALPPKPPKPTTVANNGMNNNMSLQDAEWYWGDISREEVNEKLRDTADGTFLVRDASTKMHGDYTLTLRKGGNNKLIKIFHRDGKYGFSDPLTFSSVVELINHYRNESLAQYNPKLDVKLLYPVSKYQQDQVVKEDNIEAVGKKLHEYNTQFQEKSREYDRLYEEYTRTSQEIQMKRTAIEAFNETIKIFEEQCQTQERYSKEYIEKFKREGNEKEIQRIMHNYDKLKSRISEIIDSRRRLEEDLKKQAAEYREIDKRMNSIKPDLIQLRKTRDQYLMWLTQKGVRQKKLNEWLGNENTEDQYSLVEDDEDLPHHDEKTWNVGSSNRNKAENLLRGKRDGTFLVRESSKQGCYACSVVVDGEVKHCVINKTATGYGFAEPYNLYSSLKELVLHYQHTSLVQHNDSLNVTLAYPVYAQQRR
Structures can show the parent of a compound that is named as a salt.

Illustrative cases are given below, each with its answer.
GET /values?readout=IC50&item= C[C@H]1COCCN1c1nc2c(c(-c3ccc(NC(=O)NC4CC4)cc3)n1)CN(C1CC1)C2 [Example 14]
> 100 µM

I'd like to know its IC50. The molecule in question is C[C@H]1COCCN1C(=O)Nc1ccc(-c2nc(N3CCOC[C@@H]3C)nc3c2CNC3)cc1 [Example 16]
> 100 µM

Need IC50, item C[C@H]1COCCN1c1nc2c(c(-c3ccc(NC(=O)NC4CC4)cc3)n1)CN(C(=O)C1CCOC1)C2 (stereo partly shown) [Example 40, 2,2,2-trifluoroacetate]
10 to 100 µM

So what does the record say about IC50 for CC(C)N1Cc2nc(N3CCOC[C@@H]3C)nc(-c3ccc(NC(=O)NC4CC4)cc3)c2C1 [Example 13] ?
> 100 µM

# IC50 lookup, item C[C@H]1COCCN1c1nc2c(c(-c3ccc(NC(=O)NC4CC4)cc3)n1)CN(C(N)=O)C2 [Example 42, 2,2,2-trifluoroacetate]
10 to 100 µM

Please supply IC50 for each of the following items, keeping them in order.
1. O=C(NCCO)Nc1ccc(-c2nc(N3CC4CCC(C3)O4)nc3c2CNC3)cc1 [Example 43, hydrochloride]
2. C[C@H]1COCCN1c1nc2c(c(-c3ccc(NC(=O)NCCO)cc3)n1)CN(C1CCCCC1)C2 [Example 38]

["> 100 µM", "> 100 µM"]

----------
Target: mTOR (Homo sapiens, UniProt P42345)
Construct: endogenous in cells; host or cells: Jurkat (ATCC TIB-152, clone E6-1) and Ramos (ATCC CRL-1596), 1:1 lysate mix
Test: mTOR kinobeads assay (competition binding in cell lysate, dot blot detection)
Conditions: 1:1 mix of Jurkat and Ramos cell lysates, read-out: Inhibition values (IC50 in μM) as determined in the kinobeads assay, mTor
Method: Determination of the Effect of the Compounds According to the Invention on mTOR The compounds of the present invention as described were tested in the mTOR kinobeads assay as described below. […] Bound proteins were then eluted and the presence of mTOR, PI3Kα, PI3Kβ, PI3Kγ, PI3Kδ and DNA-dependent protein kinase (DNA-PK) was detected and quantified using a specific antibody in a dot blot procedure and the Odyssey infrared detection system. […]
Measured Property: IC50

Provide IC50 for all items below, preserving their order.
1. COCCC(=O)N1Cc2nc(N3CCOC[C@@H]3C)nc(-c3ccc(NC(=O)NC4CC4)cc3)c2C1
2. CCNC(=O)Nc1ccc(-c2nc(N3CC4CCC(C3)O4)nc3c2CN(C(C)C)C3)cc1 [Example 49, 2,2,2-trifluoroacetate]
3. CCNC(=O)Nc1ccc(-c2nc(N3CCOC[C@@H]3C)nc3c2CN(C=O)C3)cc1
4. CC(C)CN1Cc2nc(N3CC4CCC(C3)O4)nc(-c3ccc(NC(=O)NCCO)cc3)c2C1 [Example 48, 2,2,2-trifluoroacetate]
5. CCNC(=O)Nc1ccc(-c2nc(N3CCOCC3)nc3c2CNC3)cc1
6. C[C@H]1COCCN1c1nc2c(c(-c3ccc(NC(=O)NC4CC4)cc3)n1)CN(C(=O)CN(C)C)C2

["0.1 to 1 µM", "1 to 10 µM", "0.1 to 1 µM", "1 to 10 µM", "0.1 to 1 µM", "1 to 10 µM"]

Return IC50 measured with mTOR (Homo sapiens, UniProt P42345) given this compound: C[C@H]1COCCN1c1nc2c(c(-c3ccc(NC(=O)NC4CC4)cc3)n1)CN(C1CC1)C2
1 to 10 µM
